The reader will find reported MIC values listed item by item below.
test system: Staphylococcus aureus; assay: Antibacterial activity against methicillin-sensitive Staphylococcus aureus 01-430 by broth microdilution method; assay type: functional
Reported Endpoint: MIC (µg/mL)

• C=CCO[C@@H]1C[C@@H](C)C(=O)[C@H](C)[C@H]2OC(=O)O[C@]2(C)[C@@H](CC)OC(=O)[C@H](C)[C@@H](OC(=O)COc2ccccc2)[C@H](C)[C@H]1OC1O[C@H](C)C[C@H](N(C)C)[C@H]1O (some centres not stated) = 16
• C=CCO[C@@H]1C[C@@H](C)C(=O)[C@H](C)[C@H]2OC(=O)O[C@]2(C)[C@@H](CC)OC(=O)[C@H](C)[C@@H](OC(=O)Cc2ccc3c(c2)OCO3)[C@H](C)[C@H]1O[C@@H]1O[C@H](C)C[C@H](N(C)C)[C@H]1O = 0.5

###

tested on: Streptococcus pyogenes; assay: Antibacterial activity against erythromycin-resistant Streptococcus pyogenes 03-680 by broth microdilution method; assay type: functional
The molecules listed here are annotated with their MIC.
Reported Endpoint: MIC (µg/mL)

* C=CCO[C@@H]1C[C@@H](C)C(=O)[C@H](C)[C@H]2OC(=O)O[C@]2(C)[C@@H](CC)OC(=O)[C@H](C)[C@@H](OC(=O)Cc2ccc(Cl)cc2)[C@H](C)[C@H]1OC1O[C@H](C)C[C@H](N(C)C)[C@H]1O (stereo not given in full) | 8
* C=CCO[C@@H]1C[C@@H](C)C(=O)[C@H](C)[C@H]2OC(=O)O[C@]2(C)[C@@H](CC)OC(=O)[C@H](C)[C@@H](OC(=O)Cc2c[nH]c3ccccc23)[C@H](C)C1O[C@@H]1O[C@H](C)C[C@H](N(C)C)[C@H]1O (stereo not given in full) | 16
* C=CCO[C@@H]1C[C@@H](C)C(=O)[C@H](C)[C@H]2OC(=O)O[C@]2(C)[C@@H](CC)OC(=O)[C@H](C)[C@@H](OC(=O)Cc2cccnc2)[C@H](C)[C@H]1O[C@@H]1O[C@H](C)C[C@H](N(C)C)[C@H]1O | 16
* CC[C@H]1OC(=O)[C@H](C)[C@@H](O[C@H]2C[C@@](C)(OC)[C@@H](O)[C@H](C)O2)[C@H](C)[C@@H](O[C@@H]2O[C@H](C)C[C@H](N(C)C)[C@H]2O)[C@](C)(OC)C[C@@H](C)C(=O)[C@H](C)[C@@H](O)[C@]1(C)O | 256
* C=CCO[C@@H]1C[C@@H](C)C(=O)[C@H](C)[C@H]2OC(=O)O[C@]2(C)[C@@H](CC)OC(=O)[C@H](C)[C@@H](OC(=O)CCc2c[nH]c3ccccc23)[C@H](C)[C@H]1O[C@@H]1O[C@H](C)C[C@H](N(C)C)[C@H]1O | 32

###

test system: Streptococcus pneumoniae; experiment: Antibacterial activity against erythromycin-resistant Streptococcus pneumoniae 03-436 by broth microdilution method; assay type: functional
Reported Endpoint: MIC (µg/mL)

- C=CCO[C@@H]1C[C@@H](C)C(=O)[C@H](C)[C@H]2OC(=O)O[C@]2(C)[C@@H](CC)OC(=O)[C@H](C)[C@@H](OC(=O)Cc2ccc3c(c2)OCO3)[C@H](C)[C@H]1O[C@@H]1O[C@H](C)C[C@H](N(C)C)[C@H]1O: 8
- CC[C@H]1OC(=O)[C@H](C)[C@@H](O[C@H]2C[C@@](C)(OC)[C@@H](O)[C@H](C)O2)[C@H](C)[C@@H](O[C@@H]2O[C@H](C)C[C@H](N(C)C)[C@H]2O)[C@](C)(OC)C[C@@H](C)C(=O)[C@H](C)[C@@H](O)[C@]1(C)O [CLARITHROMYCIN]: 128
- C=CCO[C@@H]1C[C@@H](C)C(=O)[C@H](C)[C@H]2OC(=O)O[C@]2(C)[C@@H](CC)OC(=O)[C@H](C)[C@@H](OC(=O)Cc2ccccc2Cl)[C@H](C)[C@H]1OC1O[C@H](C)C[C@H](N(C)C)[C@H]1O (some centres undefined): 8
- C=CCO[C@@H]1C[C@@H](C)C(=O)[C@H](C)[C@H]2OC(=O)O[C@]2(C)[C@@H](CC)OC(=O)[C@H](C)[C@@H](OC(=O)COc2ccccc2)[C@H](C)[C@H]1OC1O[C@H](C)C[C@H](N(C)C)[C@H]1O (some centres undefined): 32
- C=CCO[C@@H]1C[C@@H](C)C(=O)[C@H](C)[C@H]2OC(=O)O[C@]2(C)[C@@H](CC)OC(=O)[C@H](C)[C@@H](OC(=O)Cc2cccnc2)[C@H](C)[C@H]1O[C@@H]1O[C@H](C)C[C@H](N(C)C)[C@H]1O: 2
- C=CCO[C@@H]1C[C@@H](C)C(=O)[C@H](C)[C@H]2OC(=O)O[C@]2(C)[C@@H](CC)OC(=O)[C@H](C)[C@@H](OC(=O)CCc2c[nH]c3ccccc23)[C@H](C)[C@H]1O[C@@H]1O[C@H](C)C[C@H](N(C)C)[C@H]1O: 32
- C=CCO[C@@H]1C[C@@H](C)C(=O)[C@H](C)[C@H]2OC(=O)O[C@]2(C)[C@@H](CC)OC(=O)[C@H](C)[C@@H](OC(=O)Cc2ccc(Cl)cc2)[C@H](C)[C@H]1OC1O[C@H](C)C[C@H](N(C)C)[C@H]1O (some centres undefined): 16
- C=CCO[C@@H]1C[C@@H](C)C(=O)[C@H](C)[C@H]2OC(=O)O[C@]2(C)[C@@H](CC)OC(=O)[C@H](C)[C@@H](OC(=O)Cc2cccc(F)c2)[C@H](C)[C@H]1O[C@@H]1O[C@H](C)C[C@H](N(C)C)[C@H]1O: 8
- C=CCO[C@@H]1C[C@@H](C)C(=O)[C@H](C)[C@H]2OC(=O)O[C@]2(C)[C@@H](CC)OC(=O)[C@H](C)[C@@H](OC(=O)Cc2c[nH]c3ccccc23)[C@H](C)C1O[C@@H]1O[C@H](C)C[C@H](N(C)C)[C@H]1O (some centres undefined): 32
